Value source: ChEMBL document CHEMBL6096740

- assay-protocol: Tmax in ICR mouse at 10 mg/kg, po measured up to 24 hrs
- Format: ADME, organism-based
- condition-parameters: in vivo
measure: Tmax
Please answer using a numeric value trailed by its unit.

Measured Tmax, "COc1ncnc(C2CC2)c1-c1nc(N2CCOC[C@H]2c2ccc(-c3nc(C(F)(F)F)cn3C(C)C)cc2)c2occc2n1" : 15 min

###

- assay-protocol: Cmax in ICR mouse at 10 mg/kg, po measured up to 24 hrs
- Format: ADME, organism-based
- condition-parameters: in vivo
measure: Cmax (ng/mL)
One number for each entry, in ng/mL.

Measured Cmax, "COc1ncnc(C2CC2)c1-c1nc(N2CCOC[C@H]2c2ccc(-c3nc(C(F)(F)F)cn3C(C)C)cc2)c2occc2n1" : 3510

###

- assay-protocol: Metabolic stability in dog liver microsome assessed as half life preincubated for 5 mins followed by NADPH addition and measured after 120 mins by LC-MS/MS analysis
- Type: ADME, Canis lupus familiaris
- condition-parameters: liver microsomes, time 125 min
measure: half-life (h)
Numbers only, in h.

Measured half-life, "COc1ncnc(C2CC2)c1-c1nc(N2CCOC[C@H]2c2ccc(-c3nc(C(F)(F)F)cn3C(C)C)cc2)c2occc2n1" : 1.92

###

- assay-protocol: Metabolic stability in rat liver microsome assessed as half life preincubated for 5 mins followed by NADPH addition and measured after 120 mins by LC-MS/MS analysis
- Format: ADME
- condition-parameters: liver microsomes, time 125 min
measure: half-life

Measured half-life, "COc1ncnc(C2CC2)c1-c1nc(N2CCOC[C@H]2c2ccc(-c3nc(C(F)(F)F)cn3C(C)C)cc2)c2occc2n1" : > 2 h

###

- assay-protocol: Metabolic stability in human liver microsome assessed as intrinsic clearance preincubated for 5 mins followed by NADPH addition and measured after 120 mins by LC-MS/MS analysis
- Type: ADME
- condition-parameters: liver microsomes, time 125 min, read-out: CLH
measure: CLint scaled (mL/min/kg)
Numbers only, in mL/min/kg.

Measured CLint scaled, "COc1ncnc(C2CC2)c1-c1nc(N2CCOC[C@H]2c2ccc(-c3nc(C(F)(F)F)cn3C(C)C)cc2)c2occc2n1" : 20.3
